Sourced from PubChem BioAssay (NCI)

# Test system: KM12 colon
# assay comment: NCI-60 one-dose screen, 48 h (100 = growth as untreated, 0 = no growth, -100 = all killed)
# test conditions: 10 µM unless noted
Compounds without any hit were thinned out: in the full panel of roughly 83,000, 20% have a hit.
reported property: growth (%)
# value in %; strip the unit string

For record CC1(C)C2CC1C1(/C=N\Nc3ccccc3)C(C2)C(C#N)(C#N)C1(C#N)C#N (stereo not given) the listed growth is 81.3

For Cc1ncc(C(=O)Nc2ccc(CN3CCN(C)CC3)c(C(F)(F)F)c2)cc1C#Cc1ccc(N)nc1 the compound record lists growth as 2.86

The reported growth of the compound N/C(=N\c1nc2ccccc2s1)NC(=O)Nc1cccc2ccccc12 was 14.7

Looking up CCCCn1c(-c2ccc(-c3nc(-c4ccc(Cl)cc4)no3)cc2)nc(-c2ccccc2)c1-c1ccccc1 , I found its growth recorded as 95.2

CCC12CCC[N+]3([O-])CCC4(C(=Nc5ccccc54)C(O)(C(=O)OC)C1)C23 (stereo not given) yielded growth of 99.6

----------
# System: CAKI-1 renal
# assay comment: NCI-60 one-dose screen, 48 h
# test conditions: 10 µM unless noted
# Description: Growth inhibition of the CAKI-1 human tumor cell line is measured as a screen for anti-cancer activity. Cells are grown in 96 well plates and exposed to the test compound for 48 hours. Compounds are tested at a single concentration, which is 10^-5 M for most compounds. The reported endpoint is percent growth (GI% or GIPRCNT), where numbers from 0 - 100% represent growth inhibition, and numbers from -100% - 0 represent cell death. For example, a value of 40 represents 60% growth inhibition. […]
The panel holds about 83,000 compounds, 20% with a hit somewhere; the sample as a whole holds those more often. Active and inactive are the calls of the source. The calls were made as follows: active = growth percent below 10; inactive = the rest.
Give your call using only these classes: YES for active, NO for inactive

Input line: Would you mind telling me which call this test gave CC(=O)OC[C@H]1OC(Sc2sc(C(=O)c3ccc(Br)cc3)c(N)c2-c2nc3ccccc3s2)[C@H](OC(C)=O)[C@@H](OC(C)=O)[C@H]1OC(C)=O (some centres undefined) ?
Output line: NO

Input line: How was Cc1ccc(-c2cnc3sc(C(=O)NCCc4ccccc4)c(C)n23)cc1 classified in this test?
Output line: NO

Input line: Hi, do you know how Cc1ccc(C(CC(=O)O)c2c(C)[nH][nH]c2=O)cc1 (centres undefined) came out in this test?
Output line: NO

Input line: Could you kindly confirm the outcome this assay logged for O=C1COCCN1c1ccc(NCc2cn(C(=O)c3ccc(Cl)cc3)c3ccccc23)cc1 ?
Output line: YES

Input line: Test call for this compound, please: COc1c(C2CC(=O)Nc3c2c(C)nn3-c2nc3ccccc3[nH]2)cc2c(c1OC)OCO2 (centres undefined)
Output line: NO

Input line: Could you check what this test reported for CCOC(=O)C1=C(N)Oc2c(sc3c(CC)cccc23)C1c1ccc(F)cc1 (centres undefined) ?
Output line: YES

Input line: Which outcome was assigned to COc1cccc(-c2nc(-c3ccc(NC(=O)OC(C)C)cc3)[nH]c2-c2ccnc(Br)c2)c1 in this test?
Output line: NO

Input line: Look up the recorded call for CCc1cccc2c1S/C(=C/c1ccc(Cl)cc1)C2=O in this test.
Output line: NO

Input line: In this assay, the call recorded for FC(F)(F)c1cc(Nc2ccc3c(OCCCN4CCOCC4)cccc3n2)ccc1Cl was what?
Output line: NO
